measurement_notes: small-molecule microarray binders of probe aWnt5a, primary screen, biochemical, biotinylated probe, 635/667 nm fluorescence (AID 1113);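 also: score merges 667 nm fluorescence intensity with signal-to-noise per printed feature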
cond: higher = more signal
Is composite z-score at least -0.07? Then rule met. If not, rule not met.

COC(=O)C1=CC(c2ccc(CO)cc2)=CC(C2CC2)N(Cc2cc3c(cc2Br)OCO3)C=C1C(=O)OC (stereo not given) = rule met

// next entry
Record "CC(C)[Si](C#Cc1ccccc1)(O[C@H](c1ccccc1)c1cn(Cc2ccccc2)nn1)C(C)C" ; criterion: composite z-score no lower than -0.07. Met?
rule not met

---

measurement_notes: E. coli DRC41 culture turbidity changes, primary screen, E. coli filamentation inducer project, strain DRC41, OD650, 48 h (AID 1152);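 also: E. coli MC1000 strain DRC41 lacking acrAB efflux pump and sulA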
cond: E. coli DRC41 (acrAB sulA), higher = more signal, called active from +8 up or from −8 down
# z-score listing for each entry below
Number only, no unit.

Consider "CC(C)(C)OC(=O)CC[C@@]1(C(=O)N2CCOCC2)N=C(c2ccc(OCCCO)cc2)O[C@@H]1c1ccccc1CN=[N+]=[N-]" . Its measured z-score is 0.409

Just so you know, measured z-score for "CC(C)(C)OC(=O)N1[C@@H](C=C(Br)Br)COC1(C)C" came out at 1.98

---

measurement_notes: splicing luciferase reporter signal modulators, primary screen, spliceosome inhibition project, cell-based, HEK293, splice +/- reporter (AID 1101);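 also: HEK293 cells carrying a splicing-competent luciferase reporter gene; test concentration not given here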
cond: luminescence, 24 h, higher = more signal, called active from +8 up or from −8 down
Calls of active or inactive are those of the source.
measured_quantity: z-score

Below: 2 molecules and their reported z-score.
CCCC[C@@H](O)C1=C(C)Cn2c(=O)n(-c3ccccc3)c(=O)n2[C@H]1CO = -1 (inactive)
O=C/C=C/c1ccc(-c2ccccc2)cc1 = -1.04 (inactive)

Reported z-score of "COCCCNC(=O)[C@]1(Cc2ccccc2N=[N+]=[N-])N=C(c2ccc(OCCCO)cc2)O[C@@H]1c1ccccc1" : 1.08 (inactive)

Briefly, z-score measured for "C=CCNC(=O)[C@@H]1[C@H]2C(=O)O[C@H](c3ccccc3)[C@H](c3ccccc3)N2[C@H](c2ccc(OCCO)cc2)[C@@]12C(=O)Nc1ccc(C#CCNC(N)=O)cc12" : -0.0958 (inactive)

---

assay_system: Epidermal growth factor receptor (Homo sapiens)
measurement_notes: EGFR binders on small-molecule microarrays, primary screen, biochemical, small-molecule microarray, 635 nm fluorescence (AID 1104);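 also: score merges 667 nm emission intensity with spot signal to noise over triplicate slides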
cond: EGFR binding, higher = more signal
measured_quantity: composite z-score

Examples from the recorded data:
C=C(CCCC)/C(=C/C[C@@H](OC(C)=O)c1cccc(OCCO)c1)c1cc(C(=O)OC)ccc1OC = -0.347
COc1ccc([Si](C)(C)[C@H]2[C@H](CC(=O)N3CCC[C@H]3CO)O[C@@]3(C(=O)N(Cc4cccc(N5CCCCC5=O)c4)c4ccccc43)[C@@H]2C)cc1 = 0.532
COC(=O)[C@H]1N=C(c2ccc(OCCCO)cc2)O[C@H]1c1ccccc1N=[N+]=[N-] = -0.454
CC(C)Cc1ccc(CN2CC[C@@H](NC(=O)c3ccccc3)C2)cc1 = -0.381

response.value for "COc1cc(Cc2cc3c(c(CCc4ccccc4)n2)[Si](C(C)C)(C(C)C)O[C@H]3c2ccccc2)cc(OC)c1OC" (field: composite z-score) = -0.4

// recorded composite z-score for "CC(C)(C)OC(=O)CC[C@@]1(C(N)=O)N=C(c2ccc(OCCCO)cc2)O[C@@H]1c1ccccc1CN=[N+]=[N-]" : 0.0813

Input O=C1C2C=CC(C(O)c3ccccn3)N(Nc3ccc([N+](=O)[O-])cc3)C2C(=O)N1c1ccccc1 (centres undefined) . Output composite z-score: 0.0711

response.value for C[C@]12C(=O)N(CCO)[C@@H]3C(=O)N(c4ccc(Cl)cc4)CC=CC31O[C@@H]1/C=C\CCCOC(=O)C12 (some centres undefined) (field: composite z-score) = -1.51

Form: molecule = "O=C1c2ccccc2[C@@]2(Cc3ccccc3N(CC(F)(F)F)C2=O)[C@H](c2ccc(CO)cc2)N1Cc1ccccc1" ; composite z-score = -0.171

---

measurement_notes: inhibitors of hydroxyurea-induced Chk1 phosphorylation, primary screen, imaging, HeLa, phospho-Chk1 antibody, percent positive cells (AID 1186)
cond: hydroxyurea-induced phospho-Chk1 immunofluorescence imaging, higher = more signal
measured_quantity: z-score
I only need the number, thanks.

Examples with answers:
COc1ccc([Si](C)(C)[C@H]2[C@H](CC(=O)N(CCO)Cc3ccccc3)O[C@@]3(C(=O)N(c4ccccc4)c4ccccc43)[C@@H]2C)cc1 = -0.807
CCCN1C(=O)[C@@]2(c3ccc([N+](=O)[O-])cc3)CC(=O)N(C3CCCCC3)[C@@H]2c2ccc(CO)cc21 = 0.257
Cc1ccc(S[C@]2(C(=O)NCc3ccccc3)CC(=O)N(Cc3ccccc3C(F)(F)F)[C@@H]2c2ccc(CO)cc2I)cc1 = 0.225

Record "COC(=O)[C@@]1(Cc2ccc(OC)cc2)[C@H]2c3cc(C(=O)N(C)C)n(Cc4c(CO)[nH]cc(C)c4=O)c3C[C@H]2CN1C(=O)c1ccccc1" . Reported z-score: 0.54

Input "C=CCOC(=O)[C@@H]1[C@H]2C(=O)O[C@H](c3ccccc3)[C@H](c3ccccc3)N2[C@H](c2ccc(OCCOC(=O)[C@@H]3C[C@@H]4C(=O)N[C@@H](CC(C)C)C(=O)N4[C@@H]3c3ccc(O)cc3)cc2)[C@@]12C(=O)Nc1ccc(I)cc12" . Output z-score: -0.926

Reported z-score of "C=C(COC)C(=O)CC[C@H](OC(C)=O)c1ccccc1OCCO" : -0.201

Given item "O=C1N(Cc2ccccc2)Cc2ccccc2C[C@@]12COC(c1ccc(OCCCO)cc1)=N2" , the value recorded as its z-score is -0.266

z-score recorded for this compound, O=C1C2C=CC(C(O)C3CC=CCC3)N(Nc3ccc([N+](=O)[O-])cc3)C2C(=O)N1c1ccccc1 (configuration not stated) , is 0.691

Lab book: z-score of "CCOC(=O)C[C@H]1[C@H](OC(=O)c2ccccc2-c2ccccc2)[C@@H](NC(=O)CC(C)C)c2cc(OCCCO)ccc2N1C(=O)c1ccccc1" noted as -0.439

z-score in this record for "COc1cccc(C)c1NC(=O)O[C@H]1[C@H](OC(=O)Nc2ccc3c(c2)OCO3)[C@H](OC(=O)Nc2ccc3c(c2)OCO3)[C@@H](OC)O[C@@H]1CO" : -0.698

According to the records, this compound "CCOC(=O)C=C1C[C@@H](c2cccc([N+](=O)[O-])c2)O[C@@H](c2cccc([N+](=O)[O-])c2)O1" displays z-score of -0.447

---

measurement_notes: E. coli growth modulation, two-sided OD650, primary screen, E. coli filamentation project, strain DRC41, 24 h (AID 1093);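 also: MC1000 strain lacking acrAB efflux and sulA so SOS filamentation is blocked; test concentration not given here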
cond: OD650, 24 h, higher = more signal, called active from +8 up or from −8 down
Each record here notes measured z-score.
Please reply with the value in numeric form only.

Reference set (5 entries):
Cc1ccc(S[C@]2(C(=O)NCc3ccccc3)CC(=O)N(Cc3ccccc3Cl)[C@@H]2c2ccc(CO)cc2)cc1 = -2.31
C=C(C(=O)CC[C@@H](OC(=O)c1ccccc1-c1ccccc1C(=O)O)c1ccc(OCCO)cc1)C(C)C = 0.416
CO[C@H]1O[C@H](CO)[C@@H](OC(=O)Nc2cccc(F)c2)[C@H](OC(=O)c2cc3ccccc3[nH]2)[C@H]1OC(=O)c1cc2ccccc2[nH]1 = -0.178
O=C(O)C1=CC[C@H]2C(=O)N(c3ccccc3)C(=O)[C@@H]12 = -0.148
C=CCN1C(=O)[C@@]2(O[C@@H](CCO)[C@H]([Si](C)(C)c3ccc(OC)cc3)[C@H]2C)c2cc(N3CCCCC3=O)ccc21 = 0.649

Quick note, z-score for "COc1c(C)cc(-c2nc(-c3ccccc3)c3c(c2C)CO[Si]3(C(C)C)C(C)C)cc1C" landed at -1.59

Documented z-score of "COCCOC(=O)N1C(=O)[C@@]2(c3cc(C#CCNC(N)=O)ccc31)[C@H](C(=O)N1CCN(c3ncccn3)CC1)[C@H]1C(=O)O[C@H](c3ccccc3)[C@H](c3ccccc3)N1[C@@H]2c1ccc(O)cc1" : -0.324

Notebook: "CCc1cccc(NC(=O)O[C@H]2[C@H](OC(=O)Nc3ccccc3-c3ccccc3)[C@H](OC(=O)Nc3ccccc3-c3ccccc3)[C@@H](OC)O[C@@H]2CO)c1" , z-score read as -1.08

---

measurement_notes: Plasmodium falciparum growth inhibition, primary screen, strain 3D7, DAPI fluorescence, 100 nL (AID 1184);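 also: parasites grown inside human red blood cells in medium with human serum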
cond: P. falciparum 3D7 growth, 3 d, higher = more signal
Decide by z-score: equal to or exceeding -1 means TRUE, less means FALSE.

CC(C)[Si]1(C(C)C)OCc2cc(-c3ccc(-c4ccc(Cl)c(Cl)c4)o3)nc(-c3ccc(Oc4ccccc4)cc3)c21 = TRUE
COCCOC(=O)N1C(=O)[C@@]2(c3cc(C#CC4=CCCCC4)ccc31)[C@H](c1ccc(O)cc1)N1[C@H](c3ccccc3)[C@H](c3ccccc3)OC(=O)[C@H]1[C@@H]2C(=O)N1CCc2cc(OC)c(OC)cc2C1 = FALSE
O=C1O[C@@H](c2ccccc2)[C@@H](c2ccccc2)N2[C@@H](c3ccccc3OCCO)[C@]3(C(=O)Nc4ccc(C#CC5(O)CCCCCC5)cc43)[C@@H](C(=O)N3CCCCCCC3)[C@H]12 = FALSE
CCCCC(=C=CC[C@H](O)c1ccccc1OCCO)CCO = TRUE
CN(C)CCCCNC(=O)[C@H]1C[C@H]2C(=O)N[C@@H](CCCCN(C)C)C(=O)N2[C@H]1c1ccc(O)cc1 = TRUE
COCCOC(=O)N1C(=O)[C@@]2(c3ccccc31)[C@H](C(=O)Nc1nc3ccccc3s1)[C@H]1C(=O)O[C@H](c3ccccc3)[C@H](c3ccccc3)N1[C@@H]2c1ccccc1OCCO = FALSE
CCOC(=O)C[C@H]1[C@H](OC(=O)c2cc3ccccc3oc2=O)[C@@H](NC(=O)c2ccc(-c3ccccc3)cc2)c2cc(OCCCO)ccc2N1C(=O)Cc1ccc(OC)cc1 = TRUE
C=CC[C@H](O)c1ccc(O)c2ccccc12 = FALSE

API: above_or_equal(metric=z-score, cutoff=-1) for item COc1ccc(NN2C(C(O)c3ccc(F)cc3)C=CC3C(=O)N(C4CCCCC4)C(=O)C32)cc1 (configuration not stated)
TRUE

Is reported z-score greater than or equal to -1 here: "C=C(COC)/C(=C/C[C@@H](OC(=O)c1ccncc1)c1ccccc1OCCO)c1cnc2ccccc2c1"
FALSE

Ref: PubChem BioAssay
